EXPERIMENTAL_SYSTEM: Cyclin-dependent kinase 2/cyclin A (Homo sapiens, UniProt P24941)
TEST_DESCRIPTION: Inhibition of human cyclin dependent kinase 2 (CDK2/A)
ASSAY_ENDPOINT: IC50 (µM)
Number in µM, nothing else.

CC(C)(C)Nc1nc(C(Cl)(Cl)Cl)nc2ccccc12 : 25.8

Please fill in: IC50 reported for CC(C)(C)Nc1nc(C(F)(F)F)nc2ccc(C(F)(F)F)cc12 = 2.05

###

Entries and their measured IC50 follow.
EXPERIMENTAL_SYSTEM: Cyclin-dependent kinase 4/cyclin D1 (Homo sapiens, UniProt P11802)
Sequence (P11802 whole entry): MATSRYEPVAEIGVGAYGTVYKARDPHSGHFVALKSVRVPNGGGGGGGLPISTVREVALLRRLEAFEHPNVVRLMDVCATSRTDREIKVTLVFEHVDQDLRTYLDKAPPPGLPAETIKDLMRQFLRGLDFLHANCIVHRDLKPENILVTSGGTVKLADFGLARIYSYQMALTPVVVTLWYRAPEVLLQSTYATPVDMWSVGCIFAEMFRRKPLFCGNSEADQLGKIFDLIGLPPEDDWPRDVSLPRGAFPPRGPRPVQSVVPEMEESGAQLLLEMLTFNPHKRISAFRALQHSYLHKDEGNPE
Sequence (P24385 whole entry, further chain): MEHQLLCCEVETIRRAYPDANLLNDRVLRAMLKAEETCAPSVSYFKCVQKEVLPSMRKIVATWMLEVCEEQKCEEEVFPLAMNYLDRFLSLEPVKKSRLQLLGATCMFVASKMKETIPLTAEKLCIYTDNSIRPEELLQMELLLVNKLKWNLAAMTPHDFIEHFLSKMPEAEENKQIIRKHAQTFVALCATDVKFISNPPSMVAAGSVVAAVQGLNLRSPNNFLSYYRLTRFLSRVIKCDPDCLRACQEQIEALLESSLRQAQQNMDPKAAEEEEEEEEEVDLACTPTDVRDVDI
TEST_DESCRIPTION: In vitro inhibitory activity against human cyclin dependent kinase (CDK4/D1)
Format: protein-complex assay

CC(C)(Nc1nc(C(F)(F)F)nc2ccccc12)c1ccccc1 : > 151 µM
CC(C)(C)Nc1nc(C(=O)O)nc2ccccc12 : > 408 µM
CC(C)(C)Nc1nc(C(N)=O)nc2ccccc12 : > 490 µM

Turning to the following compound.
Please fill in: IC50 reported for CC(C)(C)Nc1nc(Nc2ccccc2)nc2ccccc12 = > 171 µM
